- Measured On: Tyrosine-protein phosphatase non-receptor type 1 (Homo sapiens)
- Sequence (P18031 whole entry): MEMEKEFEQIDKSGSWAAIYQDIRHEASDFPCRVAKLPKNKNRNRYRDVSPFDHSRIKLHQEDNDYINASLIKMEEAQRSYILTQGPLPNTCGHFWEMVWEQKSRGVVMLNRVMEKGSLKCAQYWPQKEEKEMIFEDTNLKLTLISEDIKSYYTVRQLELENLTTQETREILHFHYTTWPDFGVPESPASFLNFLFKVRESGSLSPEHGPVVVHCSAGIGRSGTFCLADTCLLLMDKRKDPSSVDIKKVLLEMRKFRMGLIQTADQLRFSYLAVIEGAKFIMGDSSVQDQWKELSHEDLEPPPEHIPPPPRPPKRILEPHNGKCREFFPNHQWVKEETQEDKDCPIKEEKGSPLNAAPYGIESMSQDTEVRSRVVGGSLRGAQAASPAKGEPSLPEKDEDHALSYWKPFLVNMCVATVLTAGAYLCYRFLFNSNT
- Test Protocol: Non-competitive inhibition of PTP1B (unknown origin) assessed as hydrolysis of para-nitrophenylphosphate by Lineweaver-Burk plot
Value Type: Ki (µM)
One number for each entry, in µM.

Please review the following examples before continuing.
Data request: What does the data say about its Ki? Entry: COc1ccc2c3ccn(C)c4cc(=O)c(=O)n(c3-4)c2c1
Data returned: 12.9

Data request: Item Cc1c2n(C)ccc3c-2n(c(=O)c1=O)c1ccccc31 has what recorded Ki?
Data returned: 19.9

Data request: # lookup: Ki of CCc1c2n(C)ccc3c-2n(c(=O)c1=O)c1ccccc31
Data returned: 20

Data request: Consider the compound shown here: COc1cc2nccc3c4ccccc4n(c1=O)c23 [5-METHOXYCANTHINONE] What is its recorded Ki?
Data returned: 10.3

Continuing:
Data request: For the compound shown here, CC(=O)Oc1cc2nccc3c4ccccc4n(c1=O)c23 , give the reported Ki.
Data returned: 18.4

----------
- Measured On: Tyrosine-protein phosphatase non-receptor type 1 (Homo sapiens)
- Test Protocol: Inhibition of PTP1B (unknown origin) assessed as inhibition rate at 100 uM
Exercise: for every item that follows, state its recorded inhibition.
Please format your answer as a value with the unit trailing.

Data request: Hi! What's the reported inhibition for CC(C)C1NC(C(=O)O)Cc2c1[nH]c1ccccc21 (configuration not stated) on Tyrosine-protein phosphatase non-receptor type 1 (Homo sapiens)?
Data returned: 11.3%

Data request: # returns recorded inhibition (system: Tyrosine-protein phosphatase non-receptor type 1 (Homo sapiens)) for Oc1nccc2c1[nH]c1ccccc12
Data returned: 8.5%

Data request: Return inhibition measured with Tyrosine-protein phosphatase non-receptor type 1 (Homo sapiens) given this compound: CCCC1NC(C(=O)OC)Cc2c1[nH]c1ccccc21 (configuration not stated)
Data returned: 7.9%

Data request: // fetch Tyrosine-protein phosphatase non-receptor type 1 (Homo sapiens) inhibition for CCn1ccc2c3n(c(=O)c(=O)cc1-3)c1ccccc21
Data returned: 63.4%

Data request: For the record Cn1c(=O)cc2c3ccccc3n3c(=O)ccc1c23 , what value of inhibition is listed for Tyrosine-protein phosphatase non-receptor type 1 (Homo sapiens)?
Data returned: 33.6%

Data request: Recall the recorded inhibition for C=Cc1ncc(OC)c2c3ccccc3n(OC)c12 with Tyrosine-protein phosphatase non-receptor type 1 (Homo sapiens) and state it.
Data returned: 33.5%

Data request: Observed inhibition on Tyrosine-protein phosphatase non-receptor type 1 (Homo sapiens) for Cc1nccc2c1[nH]c1ccccc12 , please.
Data returned: 7.7%

Data request: Request - read-out inhibition | tested on Tyrosine-protein phosphatase non-receptor type 1 (Homo sapiens) | compound COc1cnc(C(C)=O)c2[nH]c3ccccc3c12
Data returned: 21.6%

Please give inhibition, item by item, for the list that follows.
1. COc1cnc(CCn2ccc3c4n(c(=O)c(=O)cc2-4)c2ccccc32)c2c1c1ccccc1n2OC
2. COC(=O)c1nccc2c1[nH]c1ccccc12

Data returned:
1. 43.9%
2. 2.9%

State the recorded inhibition for every item in the following list.
1. O=C(O)CCc1nccc2c1[nH]c1ccccc12
2. CCn1ccc2c3n(c(=O)c(=O)cc1-3)c1cc(OC)ccc21

Data returned:
1. 39.3%
2. 59.4%

----------
- Measured On: Tyrosine-protein phosphatase non-receptor type 1 (Homo sapiens) (UniProt P18031)
- Test Protocol: Inhibition of PTP1B (unknown origin) assessed as inhibition rate at 100 uM
Value Type: inhibition

Data request: # lookup: inhibition of COc1ccc2c3ccnc4ccc(=O)n(c2c1)c43
Data returned: 34.9%

Each of the following entries comes with a recorded value; kindly state inhibition for each.
1. COn1c(=O)cc2c3ccccc3n3c(=O)ccc1c23
2. C(=C\c1nccc2c1[nH]c1ccccc12)/c1ccccc1
3. COc1c(OC)c2nccc3c4ccccc4n(c1=O)c23
4. COc1c(OC(C)=O)c(=O)n2c3ccccc3c3ccnc1c32

Data returned:
["31.2%", "15%", "26.5%", "68.8%"]

Answer for every listed entry: what is its inhibition? The entries follow.
1. CCOC(=O)c1nccc2c1[nH]c1ccccc12
2. COc1c2n(C)ccc3c-2n(c(=O)c1=O)c1ccccc31

Data returned:
["26.9%", "76.6%"]

Working through the 7 compounds below one at a time, give inhibition for each.
1. COc1c(OC)c2nc(O)cc3c4ccccc4n(c1=O)c23
2. O=c1c(CO)cc2nccc3c4ccccc4n1c23
3. COc1cccc2c1[nH]c1c(C(=O)CCC(=O)c3ncc(OC)c4c3[nH]c3c(OC)cccc34)ncc(OC)c12
4. COc1cnc2ccc(=O)n3c4ccccc4c1c23
5. COc1c(O)c(=O)n2c3ccccc3c3cc(=O)n(C)c1c32
6. CCc1c2n(C)ccc3c-2n(c(=O)c1=O)c1ccccc31
7. CCc1ncc(OC)c2c1[nH]c1c(O)cccc12

Data returned:
1. 81.9%
2. 33.8%
3. 43.8%
4. 23.7%
5. 26.3%
6. 91%
7. 27.1%
